Target: Human V1b receptor (Homo sapiens)
Sequence (P47901 1-424): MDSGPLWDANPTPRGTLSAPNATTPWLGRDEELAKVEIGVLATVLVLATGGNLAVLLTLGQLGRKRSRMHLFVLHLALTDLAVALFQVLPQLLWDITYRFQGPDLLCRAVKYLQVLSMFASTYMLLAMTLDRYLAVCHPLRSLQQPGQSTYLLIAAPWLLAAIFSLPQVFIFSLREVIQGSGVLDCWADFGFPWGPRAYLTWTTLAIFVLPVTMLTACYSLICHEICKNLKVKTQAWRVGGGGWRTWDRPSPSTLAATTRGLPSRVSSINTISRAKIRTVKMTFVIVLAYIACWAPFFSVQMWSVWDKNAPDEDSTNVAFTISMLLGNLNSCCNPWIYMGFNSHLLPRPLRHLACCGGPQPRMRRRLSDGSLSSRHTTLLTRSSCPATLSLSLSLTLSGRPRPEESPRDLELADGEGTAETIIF
Test: Measurement of V1b receptor antagonistic activity (AVP-induced fluorescence, Fluo-4, FDSS)
Format: cell-based
Design: expressed in transfected cells
Conditions: CHO cells stably expressing human V1b receptor; AVP 2.5 nmol/L; 30 minutes preincubation; read-out: IC50 value (V1b receptor antagonistic activity)
METRIC: IC50

# example entries with known answers
| COMPOUND | REPORTED |
| --- | --- |
| COc1cc(-c2nn(-c3ccc(CCN4C5CCC4CC(O)C5)cc3)c(=O)n2CC(=O)NC(C)C)ccc1F (stereo not shown) | 16 nM |
| CC(C)NC(=O)Cn1c(-c2cccc(Cl)c2)nn(-c2ccc(CCN3CCOCC3)cc2)c1=O | 9.3 nM |
| CC(C)NC(=O)Cn1c(-c2ccc(F)c(Cl)c2)nn(-c2ccc(CCN3CCOCC3)cc2)c1=O | 6.3 nM |

// next entry
Can you look up the measured IC50 of "CC(C)NC(=O)Cn1c(-c2ccc(F)c(Cl)c2)nn(-c2ccc(CCN3C4CCC3COC4)cc2)c1=O" for me?
6 nM

----------
Target: Human V1b receptor (Homo sapiens, UniProt P47901)
Sequence (P47901 1-424): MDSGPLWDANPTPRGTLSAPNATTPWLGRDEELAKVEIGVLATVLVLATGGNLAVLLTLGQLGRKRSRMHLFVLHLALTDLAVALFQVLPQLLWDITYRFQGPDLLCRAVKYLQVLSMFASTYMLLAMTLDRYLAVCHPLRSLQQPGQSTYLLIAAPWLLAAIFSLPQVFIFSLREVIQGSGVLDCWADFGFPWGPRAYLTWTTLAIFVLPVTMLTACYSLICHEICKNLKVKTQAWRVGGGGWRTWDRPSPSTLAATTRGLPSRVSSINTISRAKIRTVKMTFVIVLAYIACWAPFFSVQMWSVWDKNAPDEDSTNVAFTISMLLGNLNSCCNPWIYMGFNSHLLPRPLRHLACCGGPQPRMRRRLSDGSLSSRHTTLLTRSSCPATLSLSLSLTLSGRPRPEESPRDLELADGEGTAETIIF
Test: Binding test for V1b receptor ([3H]AVP displacement, crude membrane preparation)
Parameters: expressed in transfected cells; host or cells: 293FT cells (Invitrogen), transient expression; crude membrane preparation
Conditions: [3H]AVP 0.4 to 1 nmol/L; membranes of 293FT cells transiently expressing human V1b receptor; room temperature, 60 minutes
METRIC: IC50 (nM)
Answer format: numeric, nM implied, no suffix.

| MOLECULE | METRIC | REPORTED |
| --- | --- | --- |
| COc1cc(-c2nn(-c3ccc(CCN4C5CCC4COC5)cn3)c(=O)n2CC(=O)NC(C)C)ccc1F [Cb-5] | IC50 | 16 |
| CC(C)NC(=O)Cn1c(-c2cccc(Cl)c2)nn(-c2ccc(CCN3CCOCC3)cn2)c1=O [Ab-2] | IC50 | 41 |
| CC(C)(C)NC(=O)Cn1c(-c2cccc(Cl)c2)nn(-c2ccc(CCN3CCOCC3)cc2)c1=O [Ad-1] | IC50 | 2.5 |
| CC(C)NC(=O)Cn1c(-c2cccc(Cl)c2)nn(-c2ccc(CCN3CCOCC3)cc2)c1=O [Aa-1] | IC50 | 8.6 |

What is its IC50 for Human V1b receptor (Homo sapiens, UniProt P47901)? Entry: COc1cc(-c2nn(-c3ccc(CCN4CCOCC4)cc3)c(=O)n2CC(=O)NC(C)C)ccc1F [Ca-2]
10

----------
Target: Human V1b receptor (Homo sapiens)
Test: Binding test for V1b receptor ([3H]AVP displacement, crude membrane preparation)
Set-up: expressed in transfected cells; host or cells: 293FT cells (Invitrogen), transient expression; crude membrane preparation
Details: [3H]AVP 0.4 to 1 nmol/L; membranes of 293FT cells transiently expressing human V1b receptor; room temperature, 60 minutes
METRIC: IC50 (nM)
Answer format: numeric, nM implied, no suffix.

Can you look up the measured IC50 of "CC(C)NC(=O)Cn1c(-c2cccc(Cl)c2)nn(-c2ccc(CCN3CCCOCC3)cc2)c1=O" for me?
20

Can you look up the measured IC50 of "COc1cccc(-c2nn(-c3ccc(CCN4C5CCC4COC5)cc3)c(=O)n2CC(=O)NC(C)C)n1" for me?
20

Can you look up the measured IC50 of CC(C)NC(=O)Cn1c(-c2cccc(Cl)c2)nn(-c2ccc(CCN3C4CCC3CC(O)C4)cn2)c1=O (centres unmarked) for me?
20

----------
Target: Human V1b receptor (Homo sapiens, UniProt P47901)
Assay: Binding test for V1b receptor ([3H]AVP displacement, crude membrane preparation)
Parameters: expressed in transfected cells; host or cells: 293FT cells (Invitrogen), transient expression; crude membrane preparation
Settings: [3H]AVP 0.4 to 1 nmol/L; membranes of 293FT cells transiently expressing human V1b receptor; room temperature, 60 minutes
METRIC: IC50

| MOLECULE | TARGET_OF_ASSAY | METRIC | REPORTED |
| --- | --- | --- | --- |
| COc1cc(-c2nn(-c3ccc(CCN4CCC(C(N)=O)CC4)cc3)c(=O)n2CC(=O)NC(C)C)ccc1F | Human V1b receptor (Homo sapiens, UniProt P47901) | IC50 | 100 to 1000 nM |
| COc1cc(-c2nn(-c3ccc(CCN4CCC(NC(C)=O)CC4)cc3)c(=O)n2CC(=O)NC(C)C)ccc1F | Human V1b receptor (Homo sapiens, UniProt P47901) | IC50 | 100 to 1000 nM |
| COc1cc(-c2nn(-c3ccc(CCN4CC5(CCOCC5)C4)cc3)c(=O)n2CC(=O)NC(C)C)ccc1F | Human V1b receptor (Homo sapiens, UniProt P47901) | IC50 | 10 to 100 nM |
| CCC1COCCN1CCc1ccc(-n2nc(-c3ccc(F)c(OC)c3)n(CC(=O)NC(C)C)c2=O)cc1 (stereo not drawn) | Human V1b receptor (Homo sapiens, UniProt P47901) | IC50 | 10 to 100 nM |
| COc1cccc(-c2nn(-c3ccc(CCN4C5CCC4COC5)cc3)c(=O)n2CC(=O)NC(C)C)c1 | Human V1b receptor (Homo sapiens, UniProt P47901) | IC50 | 9.4 nM |

// next entry
Can you look up the measured IC50 of "COc1cc(-c2nn(-c3ccc(CCN4C[C@@H](C)O[C@@H](C)C4)cc3)c(=O)n2CC(=O)NC(C)C)ccc1F" for me?
10 to 100 nM

----------
Target: UniProt P47901
Test: Binding test for V1b receptor ([3H]AVP displacement, crude membrane preparation)
Design: expressed in transfected cells; host or cells: 293FT cells (Invitrogen), transient expression; crude membrane preparation
Settings: [3H]AVP 0.4 to 1 nmol/L; membranes of 293FT cells transiently expressing human V1b receptor; room temperature, 60 minutes
IC50 less than 10 nM is t; IC50 greater than or equal to 10 nM is f.

| MOLECULE | TARGET_OF_ASSAY | GROUP_LABEL |
| --- | --- | --- |
| CC(C)NC(=O)Cn1c(-c2cccc(Cl)c2)nn(-c2ccc(CC(C)N3C4CCC3COC4)cn2)c1=O (single isomer, unassigned; (-)) [Ad-19-1] | UniProt P47901 | t |
| COc1cccc(-c2nn(-c3ccc(CCN4CCOCC4)cc3)c(=O)n2CC(=O)NC(C)C)n1 | UniProt P47901 | f |
| CC(C)(C)NC(=O)Cn1c(-c2cccc(Cl)c2)nn(-c2ccc(CCN3C4CCC3COC4)cn2)c1=O | UniProt P47901 | t |
| CC(C)NC(=O)Cn1c(-c2cccc(C#N)c2)nn(-c2ccc(CCN3CCOCC3)cc2)c1=O | UniProt P47901 | f |
| COc1cccc(-c2nn(-c3ccc(CCN4CCOCC4)cc3)c(=O)n2CC(=O)NC(C)C)c1 | UniProt P47901 | f |

Consider the record given below.
Please state whether IC50 is below 10 nM for "CC(C)NC(=O)Cn1c(-c2ccc(F)c(Cl)c2)nn(-c2ccc(CCN3CCCOCC3)cc2)c1=O"
f
